- TARGET UNDER TEST: insulin-like growth factor-1 (IGF-1) (UniProt P05019 49-118)
- Sequence (P05019 49-118 limits assumed): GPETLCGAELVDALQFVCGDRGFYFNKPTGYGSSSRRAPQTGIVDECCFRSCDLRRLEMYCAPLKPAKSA
- TEST METHOD NOTES: cell-based or functional assay
Positions of bridges follow the written chain, without caps; N, C: chain ends. Non-standard residues stand in square brackets, D forms with d. No end group written: not given here. dAbu = CC[C@@H](N)C(=O)O
Assign T whenever % Inhibition at 100 µM, p42 does not fall below 30%; assign F whenever it does.

Study these solved cases before continuing.
BINDER	CLASS ASSIGNMENT
GFB-135 (designed binder, also: 3 GDGY loops and 1 GDDD loop on But-Calix scaffold, linker to a chain's N/C-terminus via 3-aminomethyl-5-aminobenzamide) peptide 1: GDGY peptide 2: GDDD	F
[dAbu]DGD (designed binder, linker N-C via 3‑aminomethyl‑5‑aminobenzamide; also: four loops joined to But-Calix calix[4]arene scaffold) [GFB-121]	F
ADGD (designed binder, linker N-C via 3‑aminomethyl‑5‑aminobenzamide; also: four loops on But-Calix calix[4]arene scaffold) [GFB-112]	F

I'd appreciate it if you could say whether [dA]DGD (designed binder, linker N-C via 3‑aminomethyl‑5‑aminobenzamide; also: four loops on But-Calix calix[4]arene scaffold) [GFB-108] has % Inhibition at 100 µM, p42 at least equal to 30%.
T

Does GDGY (designed binder, linker N-C via 3‑aminomethyl‑5‑aminobenzamide; also: loops on DPM-2 scaffold) [GFB-128] have a reported % Inhibition at 100 µM, p42 of at least 30%?
F

Is % Inhibition at 100 µM, p42 at least 30%? Consider GDLD (designed binder, linker N-C via 3‑aminomethyl‑5‑aminobenzamide; also: four loops on But-Calix calix[4]arene scaffold) [GFB-109]
T

Please check the record GDSD (designed binder, linker N-C via 3‑aminomethyl‑5‑aminobenzamide; also: four loops on But-Calix calix[4]arene scaffold) [GFB-113] and state if its % Inhibition at 100 µM, p42 is at or above 30%.
F

API: above_or_equal(metric=% Inhibition at 100 µM, p42, cutoff=30%) for item GDND (designed binder, linker N-C via 3‑aminomethyl‑5‑aminobenzamide; also: four loops on But-Calix scaffold) [GFB-117]
F

Hi team, for GKGF (designed binder, linker N-C via 3‑aminomethyl‑5‑aminobenzamide; also: four loops on But-Calix scaffold) [GFB-115] , is the recorded % Inhibition at 100 µM, p42 at or above 30%?
F

All figures here come from patent US20060084596A1.
